- assay_overview: Cycloheximide Counterscreen for Small Molecule Inhibitors of Shiga Toxin; note: read at 38.3 µM for the half of the compounds with a filed dose
- condition_parameters: cell reporter, cycloheximide protein synthesis inhibition counterscreen
In all, about 300,000 compounds went through this assay and about 37,000 (12%) were called active. Cut-off read from the data, not from the text of the source: active = max response mostly above about 13% (no sharp cut-off); inactive = mostly below about 14%. This is one part of a sample in which actives are shown more often than they occur.
Select the correct class. Options are T for active, F for inactive and nothing else.

Reference set, count: 2
                                   molecule  assigned_label
0  COc1ccc(Cl)cc1NS(=O)(=O)c1cccc(C(=O)NCC2CCCO2)c1 (stereo not drawn)               F
1  COc1ccc(N(CC(=O)Nc2cc(OC)ccc2OC)S(=O)(=O)c2c(C)noc2C)cc1               F

Q: Dear colleague, could you share the recorded outcome for CC(=O)N1CCC(C(=O)Nc2nc(-c3ccccc3)ns2)CC1 when you have a moment?
Ans: F

Q: Dear colleague, could you share the recorded outcome for O=S(=O)(Nc1ccccc1Cl)c1cccc2nsnc12 when you have a moment?
Ans: F

Q: Dear colleague, could you share the recorded outcome for FC(F)(F)c1cccc(N/N=C/c2ccccc2)c1 when you have a moment?
Ans: T

Q: Dear colleague, could you share the recorded outcome for O=C1CSC2=NCN(c3ccccc3)CN12 when you have a moment?
Ans: F

Q: Dear colleague, could you share the recorded outcome for O=C(Nc1cccc(NC(=O)c2ccc(Br)cc2)c1)c1ccccc1 when you have a moment?
Ans: F
